B1: CSNK1G1 (parent)
chain: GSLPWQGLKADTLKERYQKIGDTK

- Variants of: B1
- Measurement notes: protein stability index of a GFP-peptide fusion (GPS, HEK-293T) (PSI 1-6); higher = more stable;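 further: lentivirally expressed fusions sorted by FACS into six bins by GFP to DsRed ratio, PSI derived from sequencing read proportions per bin multiplied by bin number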
- Cond: c terminus: a fixed tail appended
Label true for high-side protein stability index (at or above 4) and false for low-side protein stability index (below it).

Examples from the recorded data:
1. GSLPWQGLKADTLKERYQKSGDTK	true
2. GSLPWQGLKADTLKERIQKIGDTK	true
3. GSLPWQGLKADTLKDRYQKIGDTK	true
4. GSLPWQGLKADTLKNRYQKIGDTK	false
5. GSLPWQGLKADTLKERCQKIGDTK	true

Exam item: Reported protein stability index at or above 4? `GSLPWQGLKADTLKERYQKIGDSK`
Marked response: true

Exam item: Would you kindly repeat that for `GSLPWQGLKADTLKERYQKIGTTK` ?
Marked response: false

Exam item: Next variant: `GSLPAQGLKADTLKERYQKIGDTK`
Marked response: true

Exam item: Consider next the variant `GSLPWQGLKADTLKERYQKIGDTV` in the same way.
Marked response: false

Exam item: Then this variant: `GSLPRQGLKADTLKERYQKIGDTK`
Marked response: true
